The entries below come with measured apparent KD of MS2 coat protein values attached.
test system: MS2 coat protein; test: apparent KD of MS2 coat protein; designed switch direction (-1 OFF switch, 1 ON switch): 1; higher = weaker reporter binding; details: input ligand: microRNA oligo, concentration not stated

construct sequence	apparent KD of MS2 coat protein (nM)
AGGCUCAGAGCAGGAUAUAUGUCUCGAGCUUCGGCUCGAGACAUGAGGAUCACCCAUGUAAUAACAUAGAAGGGCUCUGAGCCA [SSNG2/1-B1] (Eterna round: R96, puzzle: Same State NG 2)	45.8
AACCCGAUGGAAGGAUAUGGCACCUUAUUGGUGCCAGAAGGUCCAAACAUGAGGAUCACCCAUGUGGGCCGGUCGAAAGACCGG [Fiskers NG1ss - 11] (Eterna round: R96, puzzle: Same State NG 1)	53.2
GUGGCGGGUUGAGGAUAUUGGUUGCAUAUGUUUAACAUGAGGAUCACCCAUGUGGGUUGCGGUUUCGAGAAGGUAGGUUGCUGG [salish99_SSNG2_r04_044] (Eterna round: R96, puzzle: Same State NG 2)	95.3
GGAAUAUUUACAGGAUAUGAGUUGUAAAGUCGAUCAGAAGGGUAGAUGUCUUACACGGUGUGUUACAUGAGGAUCACCCAUGUU [SameState NG1 #19] (Eterna round: R96, puzzle: Same State NG 1)	160
GUGGUCAGACAUGAGGAUCACCCAUGUGGAAUAAAUAAGGGAGAGGAUAUAUAAUAUAGGAUAUAAUAGAAGGCUCGGUUGGUG (Eterna round: R96, puzzle: Same State NG 3)	89.5
